Where do the numbers come from? From PubChem BioAssay (NCI).

# Tested on: MDA-MB-468 breast
# TEST DESCRIPTION: NCI-60 one-dose screen, 48 h
# RUN CONDITIONS: 10 µM unless noted
The panel holds about 83,000 compounds, 20% with a hit somewhere; the sample as a whole holds those more often. Calls of active or inactive are those of the source. How the source made its calls: active means growth percent below 10; inactive means the rest.
Pick from 1.0 = active, 0.0 = inactive when you respond.

| COMPOUND | CATEGORY LABEL |
| --- | --- |
| Oc1ccc(-c2nc3ccc(/C(=N\N=C\c4ccc(Cl)cc4)c4ccccc4)cc3[nH]2)cc1 | 0.0 |
| CC(=O)Nc1ccc(S(=O)(=O)N2C(=O)CCC2C(=O)Nc2ccc(Br)cc2)cc1 (configuration not stated) | 0.0 |
| CCCn1c2cc(OCc3cn(-c4ccc(Cl)cc4)nn3)ccc2c2ccnc(C)c21 | 0.0 |
| COc1cc2c(cc1OC)C(CC1(O)CCCCC1)N(S(=O)(=O)c1ccc(C)cc1)CC2 (configuration not stated) | 0.0 |
| COc1ccc(C2CC(c3ccc(OC)c(OC)c3)=NN2C(=O)c2cc(OC)c(OC)c(OC)c2)cc1 (configuration not stated) | 1.0 |
| c1ccc2nc(Cn3cc[n+](Cc4ccc5ccccc5n4)c3)ccc2c1 | 1.0 |
| N#Cc1ccc(C2C3=C(CCCC3=O)OC3=C2C(=O)c2ccccc2C3=O)cc1 (configuration not stated) | 1.0 |
| c1cc(-c2ccc3c(c2)OCO3)n2nccc2n1 | 0.0 |

In: Which outcome did this test record for the compound `COc1cc(CCC[P+](c2ccccc2)(c2ccccc2)c2ccccc2)c(OC)c2c1OCO2` ?
Out: 1.0

In: Which outcome did this test record for the compound `Fc1ccc(-c2nnc(-c3c(-c4ccc(F)cc4)nc4ncccn34)o2)cc1` ?
Out: 0.0

In: Which outcome did this test record for the compound `C=C1CC[C@H](C(C)C)[C@@H]2[C@H]1[C@H]1CC(=C)[C@@H](O)CC[C@@](C)(O)[C@@H]2O1` ?
Out: 0.0

In: Which outcome did this test record for the compound `Cc1ccc(O)c(N)c1` ?
Out: 0.0

* * *

Answer each item with its documented growth.
# System: MDA-MB-468 breast
# TEST DESCRIPTION: NCI-60 one-dose screen, 48 h (100 = growth as untreated, 0 = no growth, -100 = all killed)
# RUN CONDITIONS: 10 µM unless noted
Compounds without any hit were thinned out: in the full panel of roughly 83,000, 20% have a hit. The source made the active and inactive calls. How the source made its calls: active means growth percent below 10; inactive means the rest.

Example entries and their recorded answers appear below.
| COMPOUND | VAL |
| --- | --- |
| COc1cccc(/C=N\NC(=O)c2ccncc2)c1O | 64.4% (inactive) |
| O=C1/C(=C/c2ccc(F)cc2)Sc2c(Br)cccc21 | 84.1% (inactive) |
| Cc1nc(-c2ccccc2)cc2c(O)c(C(=O)N/N=C/c3ccc(N(C)C)cc3)[nH]c(=O)c12 | 77.6% (inactive) |

// each compound listed below needs its growth
1. COc1cc(NC(=O)Nc2cnc(Nc3ccc(N4CCOCC4)cc3)nc2Oc2cccc(OC)c2)cc(OC)c1
2. S=C(Nc1ccc(Cl)cc1)Nc1ccc(Cl)cc1 (tested in a mixture with another compound)
3. CC1(C)OC(=O)C(c2ccsc2)C(=O)O1

Out:
1. 29.9% (inactive)
2. -16.6% (active)
3. 114% (inactive)
